# tgt: integrin α4β7 (Homo sapiens, UniProt P13612+P26010)
# Sequence (P13612 34-977 limits assumed): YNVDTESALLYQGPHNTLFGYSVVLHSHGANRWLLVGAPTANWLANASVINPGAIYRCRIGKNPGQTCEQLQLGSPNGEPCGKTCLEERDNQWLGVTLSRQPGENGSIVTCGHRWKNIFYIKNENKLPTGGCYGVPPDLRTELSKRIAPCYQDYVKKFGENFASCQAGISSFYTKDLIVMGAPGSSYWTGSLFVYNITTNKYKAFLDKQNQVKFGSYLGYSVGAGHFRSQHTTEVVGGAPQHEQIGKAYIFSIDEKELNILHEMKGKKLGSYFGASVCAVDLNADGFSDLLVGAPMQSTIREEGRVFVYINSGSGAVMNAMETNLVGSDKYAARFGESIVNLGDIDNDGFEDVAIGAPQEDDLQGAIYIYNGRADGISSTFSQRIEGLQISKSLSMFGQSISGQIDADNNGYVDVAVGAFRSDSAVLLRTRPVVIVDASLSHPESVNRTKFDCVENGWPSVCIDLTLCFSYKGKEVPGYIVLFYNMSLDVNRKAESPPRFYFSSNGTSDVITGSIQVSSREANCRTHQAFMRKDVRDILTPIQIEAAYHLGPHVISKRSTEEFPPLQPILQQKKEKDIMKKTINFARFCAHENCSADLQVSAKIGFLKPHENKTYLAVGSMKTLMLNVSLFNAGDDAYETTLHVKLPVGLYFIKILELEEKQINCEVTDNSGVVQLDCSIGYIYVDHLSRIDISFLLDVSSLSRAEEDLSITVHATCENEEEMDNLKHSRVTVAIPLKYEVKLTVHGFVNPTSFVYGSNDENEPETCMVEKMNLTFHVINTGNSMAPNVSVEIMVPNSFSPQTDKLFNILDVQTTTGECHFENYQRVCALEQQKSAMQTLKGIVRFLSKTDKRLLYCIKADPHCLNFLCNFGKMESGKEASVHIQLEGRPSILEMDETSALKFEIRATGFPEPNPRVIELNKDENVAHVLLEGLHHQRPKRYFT
# Sequence (P26010 20-723 limits assumed): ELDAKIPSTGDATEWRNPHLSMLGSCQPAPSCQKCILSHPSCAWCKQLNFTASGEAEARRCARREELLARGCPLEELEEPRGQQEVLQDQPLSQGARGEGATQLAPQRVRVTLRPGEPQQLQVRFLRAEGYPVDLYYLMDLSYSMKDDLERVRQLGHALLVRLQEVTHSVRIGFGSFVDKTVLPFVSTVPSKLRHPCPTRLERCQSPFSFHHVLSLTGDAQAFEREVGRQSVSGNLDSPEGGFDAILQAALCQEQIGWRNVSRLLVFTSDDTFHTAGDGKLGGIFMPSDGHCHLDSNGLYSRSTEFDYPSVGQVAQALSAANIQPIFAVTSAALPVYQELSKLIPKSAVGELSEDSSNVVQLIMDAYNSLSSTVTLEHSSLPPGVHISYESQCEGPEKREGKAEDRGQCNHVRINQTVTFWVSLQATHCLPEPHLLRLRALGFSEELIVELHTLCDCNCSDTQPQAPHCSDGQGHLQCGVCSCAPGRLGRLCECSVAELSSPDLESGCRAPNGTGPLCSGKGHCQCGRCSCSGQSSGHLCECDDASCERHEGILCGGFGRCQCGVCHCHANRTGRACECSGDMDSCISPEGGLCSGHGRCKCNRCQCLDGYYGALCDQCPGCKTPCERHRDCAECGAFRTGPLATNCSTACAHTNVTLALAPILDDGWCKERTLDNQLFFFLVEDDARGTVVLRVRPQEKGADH
# assay-summary: Integrin α4β7—MAdCAM-1 competition assay (ELISA)
# Assay type: binding
# condition-parameters: ratio a4b1 ELISA IC50 / a4b7 ELISA IC50
The following compounds are shown together with reported Selectivity ELISA values.
No unit in the answer, only the number.

Here is how some compounds turned out for Selectivity ELISA.
CC(C)C[C@@H]1NC(=O)C[C@H](CCCCN)NC(=O)[C@H](Cc2ccc(O)cc2)NC(=O)[C@@H]2CCCN2[C@H](C(=O)NC(C)(C)C)[C@H](C)NC(=O)[C@H]([C@@H](C)OCc2ccccc2)NC(=O)[C@H](CC(=O)O)NC1=O: 2.6
CC(C)C[C@@H]1NC(=O)c2cccc(c2)CNC(=O)[C@@H]2CCCN2[C@H](C(=O)NC(C)(C)C)[C@H](C)NC(=O)[C@H]([C@@H](C)O)NC(=O)[C@H](CC(=O)O)NC1=O: 8.7
COc1ccc(-c2ccccc2C[C@@H]2NC(=O)[C@@H]3CCCN3[C@H](C(=O)NC(C)(C)C)[C@H](C)NC(=O)[C@H]([C@@H](C)O)NC(=O)[C@H](CC(=O)O)NC(=O)[C@H](CC(C)C)NC(=O)[C@H]3CCCCN3C2=O)cc1: 7.8

Sample C=CCOc1ccc(C[C@@H]2NC(=O)[C@@H]3CCCN3[C@H](C(=O)NC(C)(C)C)[C@H](C)NC(=O)[C@H]([C@@H](C)O)NC(=O)[C@H](CC(=O)O)NC(=O)[C@H](CC(C)C)NC(=O)[C@@H](CO)NC2=O)cc1 , system: integrin α4β7 (Homo sapiens, UniProt P13612+P26010). Its Selectivity ELISA is 13.6

Sample CC(C)C[C@@H]1NC(=O)[C@H](Cc2csc(-c3ccccn3)n2)NC(=O)[C@@H]2CCCN2[C@H](C(=O)NC(C)(C)C)[C@H](C)NC(=O)[C@H]([C@@H](C)O)NC(=O)[C@H](CC(=O)O)NC1=O , system: integrin α4β7 (Homo sapiens, UniProt P13612+P26010). Its Selectivity ELISA is 2.4

Sample CC(C)C[C@@H]1NC(=O)[C@H]2C[C@@H](O)CN2C(=O)[C@H](Cc2ccc(O)cc2)NC(=O)[C@@H]2CCCN2[C@H](C(=O)NC(C)(C)C)[C@H](C)NC(=O)[C@H]([C@@H](C)O)NC(=O)[C@H](CC(=O)O)NC1=O , system: integrin α4β7 (Homo sapiens, UniProt P13612+P26010). Its Selectivity ELISA is 2.0

Sample CC(C)C[C@@H]1NC(=O)[C@H]2CCCN2C(=O)[C@H](Cc2cc(Br)c(O)c(Br)c2)NC(=O)[C@@H]2CCCN2[C@H](C(=O)NC(C)(C)C)[C@H](C)NC(=O)[C@H]([C@@H](C)O)NC(=O)[C@H](CC(=O)O)NC1=O , system: integrin α4β7 (Homo sapiens, UniProt P13612+P26010). Its Selectivity ELISA is 9.7

Sample CC(C)C[C@@H]1NC(=O)[C@@H](CCCNC(=N)N)N(C)C(=O)[C@H](Cc2ccc(O)cc2)NC(=O)[C@@H]2CCCN2[C@H](C(=O)NC(C)(C)C)[C@H](C)NC(=O)[C@H]([C@@H](C)O)NC(=O)[C@H](CC(=O)O)NC1=O , system: integrin α4β7 (Homo sapiens, UniProt P13612+P26010). Its Selectivity ELISA is 55.3

* * *

The following compounds are shown together with reported Determined concentration Rep 3 values.
# assay-summary: Aqueous solubility assay
# Assay type: physicochemical
# condition-parameters: PBS pH 7.4, 4 h, room temperature; replicate 3
Respond with the bare value in µM.

CC(C)C[C@@H]1NC(=O)[C@@H](Cc2ccncc2)NC(=O)[C@@H]2CCCN2[C@H](C(=O)NC(C)(C)C)[C@H](C)NC(=O)[C@H]([C@@H](C)O)NC(=O)[C@H](CC(=O)O)NC1=O: 950.6
CSCC[C@@H]1NC(=O)[C@@H]2CCCN2[C@H](C(=O)NC(C)(C)C)[C@H](C)NC(=O)[C@H]([C@@H](C)O)NC(=O)[C@H](CC(=O)O)NC(=O)[C@H](CC(C)C)NC1=O: 185.9
CC(C)C[C@@H]1NC(=O)C2(Cc3ccccc3C2)NC(=O)[C@@H]2CCCN2[C@H](C(=O)NC(C)(C)C)[C@H](C)NC(=O)[C@H]([C@@H](C)O)NC(=O)[C@H](CC(=O)O)NC1=O: 887.3
CC(C)C[C@@H]1NC(=O)[C@H](Cc2cscn2)NC(=O)[C@@H]2CCCN2[C@H](C(=O)NC(C)(C)C)[C@H](C)NC(=O)[C@H]([C@@H](C)O)NC(=O)[C@H](CC(=O)O)NC1=O: 180.2

CC(C)C[C@@H]1NC(=O)[C@@H]2CCCN2C(=O)[C@@H]2CCCN2[C@H](C(=O)NC(C)(C)C)[C@H](C)NC(=O)[C@H]([C@@H](C)O)NC(=O)[C@H](CC(=O)O)NC1=O yielded Determined concentration Rep 3 of 451.9

* * *

# tgt: CYP3A4 (Homo sapiens)
# Sequence (P08684 whole entry): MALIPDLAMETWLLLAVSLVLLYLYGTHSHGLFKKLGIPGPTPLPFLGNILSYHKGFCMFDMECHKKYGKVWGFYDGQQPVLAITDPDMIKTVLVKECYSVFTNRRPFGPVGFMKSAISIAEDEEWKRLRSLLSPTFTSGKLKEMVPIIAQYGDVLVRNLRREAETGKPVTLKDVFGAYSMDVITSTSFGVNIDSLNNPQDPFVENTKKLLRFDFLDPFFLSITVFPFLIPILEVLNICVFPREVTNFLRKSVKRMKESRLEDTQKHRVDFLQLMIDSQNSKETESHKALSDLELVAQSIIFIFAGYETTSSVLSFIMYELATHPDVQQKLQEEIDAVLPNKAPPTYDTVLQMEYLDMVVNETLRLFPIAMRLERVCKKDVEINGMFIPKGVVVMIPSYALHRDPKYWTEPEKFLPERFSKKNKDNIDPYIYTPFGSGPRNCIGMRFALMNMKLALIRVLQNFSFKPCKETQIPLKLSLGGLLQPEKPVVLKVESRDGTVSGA
# assay-summary: in vitro
# condition-parameters: human, microsomes
value-type: IC50 (µM)
Respond with the bare value in µM.

CC[C@H](C)[C@@H]1NC(=O)[C@H](CCO)NC(=O)[C@H](CC(C)C)NC(=O)[C@H](Cc2ccc3ccccc3c2)NC(=O)[C@@H]2CCCN2[C@H](C(=O)NC(C)(C)C)[C@H](C)NC1=O [ET01842-01]: 0.89

Next compound, please.
CC(C)C[C@H]1C(=O)N[C@@H](C(C)C)C(=O)N[C@@H](Cc2ccccc2)C(=O)N[C@@H](C)[C@@H](C(=O)NC(C)(C)C)N2CCC[C@H]2C(=O)N[C@@H]([C@@H](C)O)C(=O)N1C [ET00328-01] yielded IC50 of 9.7

* * *

The following molecules are shown together with reported Selectivity ELISA values.
# tgt: integrin α4β7 (Homo sapiens, UniProt P13612+P26010)
# assay-summary: Integrin α4β7—MAdCAM-1 competition assay (ELISA)
# Assay type: binding
# condition-parameters: ratio a4b1 ELISA IC50 / a4b7 ELISA IC50

Here is how some molecules turned out for Selectivity ELISA.
CC(C)C[C@@H]1NC(=O)c2ccc(Br)c(c2)CNC(=O)[C@H](Cc2ccc(O)cc2)NC(=O)[C@@H]2CCCN2[C@H](C(=O)NC(C)(C)C)[C@H](C)NC(=O)[C@H]([C@@H](C)O)NC(=O)[C@H](CC(=O)O)NC1=O [Compound 336]: 5.6
CC[C@H](C)[C@@H]1NC(=O)[C@H](CC(=O)O)NC(=O)[C@H](CC(C)C)NC(=O)C[C@H](CCCCN)NC(=O)[C@H](Cc2ccc(CN)cc2)NC(=O)[C@@H]2CCCN2[C@H](C(=O)NC(C)(C)C)[C@H](C)NC1=O [Compound 215]: 12.4
CC(C)C[C@@H]1NC(=O)[C@H]2CCCN2C(=O)[C@H](Cc2cc(F)c(F)c(F)c2)NC(=O)[C@@H]2CCCN2[C@H](C(=O)NC(C)(C)C)[C@H](C)NC(=O)[C@H]([C@@H](C)O)NC(=O)[C@H](CC(=O)O)NC1=O [Compound 128]: 11.4

CC(C)C[C@@H]1NC(=O)[C@H]2CCCCN2C(=O)[C@H](Cc2ccc(-c3ccccc3)cc2)NC(=O)[C@@H]2CCCN2[C@H](C(=O)NC(C)(C)C)[C@H](C)NC(=O)[C@H]([C@@H](C)O)NC(=O)[C@H](CC(=O)O)NC1=O [Compound 138] yielded Selectivity ELISA of 5.0

C[C@@H]1NC(=O)[C@H]([C@@H](C)O)NC(=O)[C@H](CC(=O)O)NC(=O)[C@H](CC(C)(C)C)NC(=O)c2ccc(-c3ccnc4ccccc34)c(c2)CNC(=O)[C@@H]2CCCN2[C@@H]1C(=O)NC(C)(C)C [Compound 355] yielded Selectivity ELISA of 1.4

CC(C)C[C@@H]1NC(=O)[C@H]2c3ccccc3CCN2C(=O)[C@@H]2CCCN2[C@H](C(=O)NC(C)(C)C)[C@H](C)NC(=O)[C@H]([C@@H](C)O)NC(=O)[C@H](CC(=O)O)NC1=O [Compound 98] yielded Selectivity ELISA of 2.7

CC(C)C[C@@H]1NC(=O)CN(C)C(=O)[C@H](Cc2ccc(-c3ccccc3)cc2)NC(=O)[C@@H]2CCCN2[C@H](C(=O)NC(C)(C)C)[C@H](C)NC(=O)[C@H]([C@@H](C)O)NC(=O)[C@H](CC(=O)O)NC1=O [Compound 116] yielded Selectivity ELISA of 8.4

CC(C)C[C@@H]1NC(=O)[C@H]2C[C@H](O)CN2C(=O)[C@H](Cc2cscn2)NC(=O)[C@@H]2CCCN2[C@H](C(=O)NC(C)(C)C)[C@H](C)NC(=O)[C@H]([C@@H](C)O)NC(=O)[C@H](CC(=O)O)NC1=O [Compound 151] yielded Selectivity ELISA of 4.1
